# Assay Explanation: Cmax in nude mice at 200 mg/kg, po
# Type: ADME, organism-based
# Parameters: dose 200 mg/kg, route oral
# Experimental Parameters: mouse, in vivo
Recorded Endpoint: Cmax (µg/mL)
Give bare numbers, in µg/mL.

Input: Hello, please tell me recorded Cmax for this one: COc1ccc(N2Cc3cnc(Nc4ccc(F)cc4)nc3N(C3CC[C@@H](O)C3)C2=O)cc1 (single isomer, unassigned)
Output: 82.6

---

# Assay Explanation: Half life in Wistar rat at 50 mg/kg, po
# Assay type: ADME, organism-based
# Parameters: dose 50 mg/kg, route oral
# Experimental Parameters: in vivo
Recorded Endpoint: half-life
Kindly report the value followed by its unit.

Input: Hello, please tell me recorded half-life for this one: COc1ccc(N2Cc3cnc(Nc4ccc(F)cc4)nc3N(C3CC[C@@H](O)C3)C2=O)cc1 (single isomer, unassigned)
Output: 5 h
